# Tested on: NCI-H322M lung
# Experimental Protocol: NCI-60 one-dose screen, 48 h (100 = growth as untreated, 0 = no growth, -100 = all killed)
# Measurement Context: 10 µM unless noted
Compounds without any hit were thinned out: in the full panel of roughly 83,000, 20% have a hit.
Measurement Label: growth (%)
Field: numeric (%). Do not append units.

CC(=O)c1cccs1 = 97.7

Incoming: What value of measured growth is listed for CC1(C)CC(=O)C=C(N)C1 ?
Outgoing: 106

Incoming: What value of measured growth is listed for COc1ccc(C2CC(c3ccccc3)=Nc3ccccc3S2)cc1 (stereo not given) ?
Outgoing: 90.3

Incoming: What value of measured growth is listed for COC1OC(C(COC(C)=O)OC(C)=O)C(OC(C)=O)C(OC(C)=O)C1OC(C)=O (stereo not given) ?
Outgoing: 115

Incoming: What value of measured growth is listed for CCOC(C=O)OCC ?
Outgoing: 104

Incoming: What value of measured growth is listed for O=c1cc(C(F)(F)F)[nH]c(=S)[nH]1 ?
Outgoing: 101

Incoming: What value of measured growth is listed for O=C(NC(=S)N1CC=CCC1)c1ccccc1 ?
Outgoing: 116

Incoming: What value of measured growth is listed for O=C(O)Cc1ccccn1 ?
Outgoing: 102

Incoming: What value of measured growth is listed for COc1cccc(C(=O)O)c1OC ?
Outgoing: 95.6

Incoming: What value of measured growth is listed for Cc1ccc(C(C)C)c(OCC(=O)O)c1 ?
Outgoing: 107

Incoming: What value of measured growth is listed for FC(F)(F)c1cc(NC2=NCCN=C(Nc3cc(C(F)(F)F)cc(C(F)(F)F)c3)SS2)cc(C(F)(F)F)c1 ?
Outgoing: 90.1

Incoming: What value of measured growth is listed for CC(c1ccccc1)N1C(=O)CSC1=S (stereo not given) ?
Outgoing: 74.9

Incoming: What value of measured growth is listed for C[n+]1cc2cc3c(cc2c2ccccc21)OCO3 ?
Outgoing: 39

Incoming: What value of measured growth is listed for COC(=O)c1ccc([N+](=O)[O-])c(C)c1 ?
Outgoing: 93.2

Incoming: What value of measured growth is listed for ClCc1cccc2c(CCl)cccc12 ?
Outgoing: -4.83

This collection of values is drawn from PubChem BioAssay (NCI).
